The entries below are paired with their reported cell viability.
System: K562;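 also: after 48 h exposure read by CellTiter-Glo luminescence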
Assay summary: cell viability relative to vehicle control; higher = less cytotoxic
Assay setup: 10 µM; SRSF2 genotype: SRSF2 wt/wt
Where a name gives a salt, the structure may show the parent alone.
Provide the reading as a plain figure in %.

Some compounds with recorded cell viability:
{"columns": ["Compound", "Display unit", "cell viability"],
 "data": [
  ["CCOC(=O)[C@H](CCc1ccccc1)N[C@@H](C)C(=O)N1C(=O)N(C)C[C@H]1C(=O)O [Imidapril HCl]", "%", 90.9],
  ["CCCCNc1ccc(C(=O)OCCN(C)C)cc1 [Tetracaine hydrochloride (Pontocaine)]", "%", 90.7],
  ["CC(=O)S[C@@H]1CC2=CC(=O)CC[C@]2(C)[C@H]2CC[C@@]3(C)[C@@H](CC[C@@]34CCC(=O)O4)[C@H]12", "%", 89.7]
]}

Requested field: cell viability. Item: CN1CCN(c2ccc(Nc3ncc4cc(C#N)c(=O)n(C5CCCC5)c4n3)cc2)CC1
87.8
